# assay.method.text: adipocyte viability effects, profiling panel, cell-based, 3T3-L1 adipocytes, calcein-AM fluorescence, 48 h, basal (AID 1163); note: test concentration not given here
# study.conditions: 3T3-L1 adipocytes viability, higher = more signal
API: label(entry) gives YES if the entry's z-score is strictly smaller than 2; on equality or larger values it gives NO.

molecule=C[C@@H]1NC(=O)CC=C[C@@H](C)[C@@H]2C=C[C@H](O)[C@@H](COC(=O)[C@H](C)NC(=O)CC=C[C@@H](C)[C@@H]3C=C[C@H](O)[C@@H](COC1=O)O3)O2 cat=YES

Ask: A record lists COc1ccc(NN2C(C(O)c3cc(OC)c(OC)c(OC)c3)C=CC3C(=O)N(C4CCCCC4)C(=O)C32)cc1 (configuration not stated) . Is its z-score below 2?
Result: YES

Ask: A record lists CCCNC(=O)[C@@]1(Sc2ccc(C)cc2)CC(=O)N(Cc2ccccc2Cl)[C@@H]1c1ccc(CO)cc1 . Is its z-score below 2?
Result: NO

Ask: A record lists C=CCNC(=O)[C@H]1[C@@H]2C(=O)O[C@@H](c3ccccc3)[C@@H](c3ccccc3)N2[C@@H](c2ccc(O)cc2)[C@]12C(=O)Nc1ccc(C#CCNC(N)=O)cc12 . Is its z-score below 2?
Result: YES

Ask: A record lists Cc1ccc(S[C@]2(C(=O)NC(C)C)CC(=O)N(C3Cc4ccccc4C3)[C@@H]2c2ccc(CO)cc2)cc1 . Is its z-score below 2?
Result: NO

Ask: A record lists Cc1ccc([C@@H]2CC=C(C(=O)O)[C@H](c3ccccc3)N2S(=O)(=O)c2ccc(C)cc2)cc1 . Is its z-score below 2?
Result: YES

Ask: A record lists CO[C@H]1COC(=O)[C@H](C)NC(=O)CC=C[C@@H](C)[C@H](NS(=O)(=O)c2ccc(C)cc2)COC(=O)CC=C[C@@H]1C . Is its z-score below 2?
Result: YES
